Every entry's value here was drawn from ChEMBL document CHEMBL5154858.

Could you please report measured log10 IC50 for the items listed next?
- study system: Human immunodeficiency virus type 1 protease (Human immunodeficiency virus 1, UniProt Q72874)
Short version: log10 scale, IC50, µM.

Q: Respond only with log10 IC50 recorded for COc1ccc(CN2C[C@H](O)[C@@](CCC(C)C)(c3ccc(S(C)(=O)=O)cc3O[C@@H](C)CO)C2=O)cc1 (mixture of isomers)
Ans: -2.15

Q: Check the records and state log10 IC50 for COc1ccc(CN2C[C@H](O)[C@@](CCC(C)C)(c3ccc(S(C)(=O)=O)cc3)C2=O)cc1 (mixture of isomers)
Ans: 0.30

Q: State, in one line, measured log10 IC50 of COc1ccc(CN2C[C@H](O)[C@@](CCC(C)C)(c3ccc(S(C)(=O)=O)cc3OC(C)C)C2=O)cc1 (mixture of isomers)
Ans: -1.09

Q: Provide measured log10 IC50 value, entry: COc1ccc(CN2C[C@H](O)[C@@](Cc3ccc(F)cc3)(c3ccc(S(C)(=O)=O)cc3)C2=O)cc1 (racemic)
Ans: 1.73

Q: Return value of log10 IC50 for input COc1ccc(CN2C[C@@H](O)[C@@](Cc3ccc(F)cc3)(c3ccc(S(C)(=O)=O)cc3)C2=O)cc1 (mixture of isomers) , no commentary.
Ans: 1.89

Q: Retrieve log10 IC50 measured for CCC[C@]1(c2ccc(S(C)(=O)=O)cc2)C(=O)N(Cc2ccc(OC)cc2)C[C@@H]1O (mixture of isomers) and print it.
Ans: 1.51

Q: Tell us which log10 IC50 value is on record for COc1ccc(CN2C[C@H](O)[C@@](CC(C)C)(c3ccc(S(C)(=O)=O)cc3)C2=O)cc1 (mixture of isomers)
Ans: 1.53
